The measurements presented in this section are drawn from patent US10626112B2.

testedSystem: human TRPA1 (Homo sapiens (Human))
Sequence (O75762 whole entry): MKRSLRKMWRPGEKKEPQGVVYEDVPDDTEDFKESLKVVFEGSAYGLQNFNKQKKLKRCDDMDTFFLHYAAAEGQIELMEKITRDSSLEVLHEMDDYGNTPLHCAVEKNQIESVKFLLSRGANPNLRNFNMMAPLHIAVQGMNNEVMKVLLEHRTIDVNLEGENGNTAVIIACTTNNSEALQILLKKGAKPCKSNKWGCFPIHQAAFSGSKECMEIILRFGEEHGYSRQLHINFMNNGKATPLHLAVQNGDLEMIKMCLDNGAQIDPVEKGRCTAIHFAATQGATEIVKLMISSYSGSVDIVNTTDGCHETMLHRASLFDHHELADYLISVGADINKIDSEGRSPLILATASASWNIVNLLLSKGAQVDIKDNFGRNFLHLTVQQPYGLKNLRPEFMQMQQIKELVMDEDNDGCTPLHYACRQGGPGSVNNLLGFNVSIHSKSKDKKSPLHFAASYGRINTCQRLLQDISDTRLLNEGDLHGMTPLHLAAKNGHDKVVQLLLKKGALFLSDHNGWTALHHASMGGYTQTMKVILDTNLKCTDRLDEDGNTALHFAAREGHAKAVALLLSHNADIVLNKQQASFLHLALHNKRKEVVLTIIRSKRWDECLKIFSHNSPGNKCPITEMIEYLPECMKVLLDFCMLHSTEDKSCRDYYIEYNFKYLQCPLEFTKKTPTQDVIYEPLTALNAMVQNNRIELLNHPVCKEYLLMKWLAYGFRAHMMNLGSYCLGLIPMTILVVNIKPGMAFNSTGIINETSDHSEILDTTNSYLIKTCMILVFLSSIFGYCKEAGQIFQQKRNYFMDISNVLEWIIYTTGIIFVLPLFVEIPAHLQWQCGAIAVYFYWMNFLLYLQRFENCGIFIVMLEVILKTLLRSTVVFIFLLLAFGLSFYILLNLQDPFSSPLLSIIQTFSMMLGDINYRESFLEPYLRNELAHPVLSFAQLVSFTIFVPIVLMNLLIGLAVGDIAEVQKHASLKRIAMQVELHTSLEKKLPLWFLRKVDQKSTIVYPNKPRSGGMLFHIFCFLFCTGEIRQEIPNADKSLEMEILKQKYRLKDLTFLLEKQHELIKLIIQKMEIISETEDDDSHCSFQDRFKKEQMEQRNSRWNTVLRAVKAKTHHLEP
methodSummary: Measurement of TRPA1 antagonist activity (1): intracellular calcium increase
Assay type: cell-based
experimentalContext: 293T cells transfected with human TRPA1 expression plasmid; allylisothiocyanate 20 μM stimulation; intracellular calcium fluorescence; read-out: hTRPA1 IC50
// reported IC50 per item

Sample answers from the record:
CN(C)c1cc(-c2cccc(CNC(=O)[C@@H]3CCCN3S(=O)(=O)c3cc4cc(F)ccc4o3)c2)ccn1    250 nM
O=C(NCc1cccc(OCc2cccc(CN3CCOCC3)c2)c1)[C@@H]1CCCN1S(=O)(=O)c1cc2cc(F)ccc2o1    8.2 nM
O=C(NCc1cc(C(F)(F)F)ccc1Cl)[C@@H]1CCCN1S(=O)(=O)c1cc2cnccc2o1    38 nM
O=C(NCc1cc(-c2ccc(C(F)(F)F)cn2)ccn1)[C@@H]1C[C@H]2C[C@H]2N1S(=O)(=O)c1cc2cc(F)ccc2o1    1.9 nM
O=C(NCc1cnnc(-c2ccc(C(F)(F)F)nc2)c1)[C@@H]1CCCN1S(=O)(=O)c1cc2ccccc2o1    110 nM

# evaluate next
Requested read-out IC50, target or system human TRPA1 (Homo sapiens (Human)), entry `O=C(NCc1cccc(Oc2ccc(C(F)(F)F)cc2)c1)[C@@H]1CCCN1S(=O)(=O)c1cc2cc(F)ccc2o1`
2.7 nM

###

testedSystem: UniProt O75762
methodSummary: Measurement of TRPA1 antagonist activity (1): intracellular calcium increase
Type: cell-based
experimentalContext: 293T cells transfected with human TRPA1 expression plasmid; allylisothiocyanate 20 μM stimulation; intracellular calcium fluorescence; read-out: hTRPA1 IC50
pIC50: −log10 of the molar value.
# pIC50 >= 7 gives condition met, anything below gives condition not met

Check out these entries, answers already filled in.
COC(=O)C(Oc1cccc(CNC(=O)[C@@H]2CCCN2S(=O)(=O)c2cc3cc(F)ccc3o2)c1)c1ccccc1 (stereo partly shown) [Example 29]    condition not met
O=C(NCc1ccnc(-c2ccccc2)c1)[C@@H]1CCCN1S(=O)(=O)c1cc2ccccc2o1 [Example 112]    condition not met
O=C(NCc1cc(-c2ccc(C(F)(F)F)cc2)nc(OCc2ccccc2)n1)[C@@H]1CCCN1S(=O)(=O)c1cc2ccccc2o1 [Example 327]    condition met
C[C@H](NS(=O)(=O)c1cc2cc(F)ccc2o1)C(=O)NCc1cc(-c2ccc(C(F)(F)F)cn2)ccn1 [Example 240]    condition met
CC#CCN([C@@H](C)C(=O)NCc1ccnc(-c2ccc(C(F)(F)F)nc2)c1)S(=O)(=O)c1cc2cc(F)ccc2o1 [Example 313]    condition met
O=C(NCc1cccc(Nc2ccc(C(F)(F)F)cc2)c1)[C@@H]1CCCN1S(=O)(=O)c1cc2cc(F)ccc2o1 [Example 296]    condition met
O=C(NCc1ccnc(-c2ccc(OCC(F)(F)F)cc2)c1)[C@@H]1CCCN1S(=O)(=O)c1cc2ccccc2o1 [Example 204]    condition met

Kindly determine if pIC50 recorded for O=C(NCc1cc(/C=C/C2CC2)ccn1)[C@@H]1CCCN1S(=O)(=O)c1cc2ccccc2o1 [Example 282] is above or exactly 7.
condition not met

###

Each record here notes measured IC50.
testedSystem: human TRPA1 (Homo sapiens (Human))
methodSummary: Measurement of TRPA1 antagonist activity (1): intracellular calcium increase
Assay type: cell-based
experimentalContext: 293T cells transfected with human TRPA1 expression plasmid; allylisothiocyanate 20 μM stimulation; intracellular calcium fluorescence; read-out: hTRPA1 IC50
API: value field is a number in nM; no unit string.

Would you please look over these solved cases?
O=C(NCc1cccc(-c2ccc(C(F)(F)F)nc2)c1)[C@@H]1CCCN1S(=O)(=O)c1cc2c(F)cccc2o1 [Example 92]    2.2
CN(C)[C@@H]1C[C@@H](C(=O)NCc2ccnc(-c3ccc(C(F)(F)F)cc3O)c2)N(S(=O)(=O)c2cc3ccccc3o2)C1 [Example 334]    630

// switching to the query molecule
# get_value(readout='IC50', item= C[C@H](NS(=O)(=O)c1cc2cc(F)ccc2o1)C(=O)NCc1cc(-c2ccc(C(F)(F)F)cc2)cnn1 [Example 250] )
72
